Parameter: percentage damage caused to the plant, SOLNI. Scope: all listed entries.
Test system: Solanum nigrum (SOLNI)
Assay: Post-emergence herbicide test, glasshouse, percentage damage
Format: in vivo
Conditions: 1000 g/ha, evaluated after 13 days

{"record.smiles": "N#Cc1ccc(Oc2ccccc2-n2cc(C(F)(F)F)cn2)nc1", "system.name": "Solanum nigrum (SOLNI)", "observed.measurement": "5 (5=81-100%)"}

Here is another compound to look at.
Which percentage damage caused to the plant, SOLNI reading was recorded for the compound `Fc1cc(Cl)cnc1Oc1ccccc1-n1ccc(C(F)(F)F)n1` ?
4 (4=61-80%)

* * *

Parameter: percentage damage caused to the plant, AMARE. Scope: all listed entries.
System: Amaranthus retoflexus (AMARE)
Experiment: Post-emergence herbicide test, glasshouse, percentage damage
Type: in vivo
Details: 500 g/ha, evaluated after 13 days

Which percentage damage caused to the plant, AMARE reading was recorded for the compound `Fc1cccc(Oc2ccc(Cl)cn2)c1-c1cc(C(F)F)no1` ?
5 (5=81-100%)

Which percentage damage caused to the plant, AMARE reading was recorded for the compound `Fc1cc(Cl)cnc1Oc1cccc(F)c1-c1ncc(C(F)(F)F)o1` ?
2 (2=21-40%)

Which percentage damage caused to the plant, AMARE reading was recorded for the compound `Fc1cc(Cl)cnc1Oc1cccc(F)c1-c1cc(C(F)F)no1` ?
5 (5=81-100%)

Which percentage damage caused to the plant, AMARE reading was recorded for the compound `Fc1cccc(Oc2cccc(F)c2-c2cc(C(F)F)no2)n1` ?
2 (2=21-40%)

Which percentage damage caused to the plant, AMARE reading was recorded for the compound `Fc1cccc(Oc2ccc(C(F)(F)F)cn2)c1-c1cc(C(F)F)no1` ?
4 (4=61-80%)
